I'd be grateful if you could share measured IC50 for these entries.
- measurement-target: Cholinesterase (Equus caballus)
- Sequence (P81908 whole entry): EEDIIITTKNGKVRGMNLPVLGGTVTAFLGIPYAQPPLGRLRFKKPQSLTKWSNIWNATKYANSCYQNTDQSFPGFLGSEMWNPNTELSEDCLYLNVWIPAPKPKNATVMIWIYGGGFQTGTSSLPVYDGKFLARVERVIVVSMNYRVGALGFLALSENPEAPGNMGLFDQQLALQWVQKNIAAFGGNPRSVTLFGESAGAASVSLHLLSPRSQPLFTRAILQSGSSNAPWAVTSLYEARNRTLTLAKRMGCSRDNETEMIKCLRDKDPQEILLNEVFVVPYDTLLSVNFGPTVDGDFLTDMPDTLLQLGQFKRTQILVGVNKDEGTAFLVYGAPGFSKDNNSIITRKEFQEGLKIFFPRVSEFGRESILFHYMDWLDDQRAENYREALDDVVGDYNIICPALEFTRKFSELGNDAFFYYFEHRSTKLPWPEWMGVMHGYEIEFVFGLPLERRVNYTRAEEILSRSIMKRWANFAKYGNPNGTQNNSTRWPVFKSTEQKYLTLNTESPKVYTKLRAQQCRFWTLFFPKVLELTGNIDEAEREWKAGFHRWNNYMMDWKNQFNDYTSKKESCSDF
- test-name: Inhibition of equine serum BuChE using ATCI and BTCI as substrate preincubated for 5 mins followed by substrate addition and measured after 3 mins by DTNB-reagent based Ellman's method
Numbers only here, please. The scale is µM.

q: Provide one value: measured IC50 of COc1ccc2c(c1)c(C=O)cn2CCCCCCCCCCCCCCN(C)Cc1cccc(O)c1
a: 8.76

q: Provide one value: measured IC50 of COc1ccc2c(c1)c(C=O)cn2CCCCCCCCN(C)Cc1ccc(O)cc1
a: 0.45

q: Provide one value: measured IC50 of COc1ccc2c(c1)c(C=O)cn2CCCCN(C)Cc1cccc(O)c1
a: 42

q: Provide one value: measured IC50 of COc1ccc2c(c1)c(C=O)cn2CCCCCCCCCCCCN(C)Cc1ccc(OC)c(OC)c1
a: 0.88

q: Provide one value: measured IC50 of COc1ccc2c(c1)c(C=O)cn2CCCCCCCCCN(C)Cc1ccc(O)cc1
a: 0.53

q: Provide one value: measured IC50 of COc1ccc2c(c1)c(C=O)cn2CCCCCCCN(C)Cc1cccc(O)c1
a: 5.47

q: Provide one value: measured IC50 of COc1ccc2c(c1)c(C=O)cn2CCCCCCCCCCCCN(C)Cc1ccc(O)cc1
a: 1.04

q: Provide one value: measured IC50 of COc1ccc(CN(C)CCCCCCCCCCCCn2cc(C=O)c3cc(OC)ccc32)cc1
a: 5.49

q: Provide one value: measured IC50 of COc1ccc2c(c1)c(C=O)cn2CCCCCCCCCCN(C)Cc1cccc(O)c1
a: 0.61

q: Provide one value: measured IC50 of COc1ccc2c(c1)c(C=O)cn2CCCN(C)Cc1ccc(O)cc1
a: 6.53

---

- test-name: Cytotoxicity against mouse BV-2 cells assessed as cell viability at 10 uM measured after 24 hrs by CCK-8 assay
- Type: toxicity, cell-based
- recorded-conditions: read-out: Activity
readout-label: viability at 24 h, 10 µM

q: Provide one value: measured viability at 24 h, 10 µM of CN(CCCCCCCCCCCCn1cc(C=O)c2cc(O)ccc21)Cc1cccc(O)c1
a: > 50%

---

- measurement-target: Cholinesterase (Homo sapiens)
- Sequence (P06276 whole entry): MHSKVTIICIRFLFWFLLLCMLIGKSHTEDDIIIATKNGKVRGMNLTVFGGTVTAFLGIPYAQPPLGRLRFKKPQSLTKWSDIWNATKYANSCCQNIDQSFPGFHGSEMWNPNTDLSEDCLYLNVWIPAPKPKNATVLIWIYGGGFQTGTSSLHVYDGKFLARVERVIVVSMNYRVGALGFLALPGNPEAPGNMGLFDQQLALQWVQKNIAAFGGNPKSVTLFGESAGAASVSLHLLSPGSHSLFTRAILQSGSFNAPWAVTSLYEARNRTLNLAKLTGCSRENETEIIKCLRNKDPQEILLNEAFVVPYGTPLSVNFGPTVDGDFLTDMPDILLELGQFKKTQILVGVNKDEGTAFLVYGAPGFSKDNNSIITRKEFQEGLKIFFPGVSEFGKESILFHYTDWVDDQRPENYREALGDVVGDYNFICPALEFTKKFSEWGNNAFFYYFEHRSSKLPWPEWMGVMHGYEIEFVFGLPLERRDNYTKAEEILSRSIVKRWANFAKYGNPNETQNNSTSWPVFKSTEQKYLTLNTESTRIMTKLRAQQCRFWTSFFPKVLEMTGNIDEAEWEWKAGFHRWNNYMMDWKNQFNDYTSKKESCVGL
- test-name: Inhibition of human serum BuChE using ATCI and BTCI as substrate preincubated for 5 mins followed by substrate addition and measured after 3 mins by DTNB-reagent based Ellman's method
readout-label: IC50 (nM)
Numbers only here, please. The scale is nM.

q: Provide one value: measured IC50 of COc1ccc2c(c1)c(C=O)cn2CCCCCCCCCCN(C)Cc1cccc(O)c1
a: 190

q: Provide one value: measured IC50 of COc1ccc2c(c1)c(C=O)cn2CCCCCCCCCN(C)Cc1ccc(O)cc1
a: 390

q: Provide one value: measured IC50 of COc1ccc2c(c1)c(C=O)cn2CCCCCCCCCN(C)Cc1cccc(O)c1
a: 2360

q: Provide one value: measured IC50 of CCN(CCCCCCCCCCCCn1cc(C=O)c2cc(OC)ccc21)Cc1cccc(O)c1
a: 880

q: Provide one value: measured IC50 of COc1ccc(CN(C)CCCCCCCCCCCCn2cc(C=O)c3cc(OC)ccc32)cc1
a: 430

q: Provide one value: measured IC50 of COc1ccc2c(c1)c(C=O)cn2CCCCCCCCN(C)Cc1cccc(O)c1
a: 2150

q: Provide one value: measured IC50 of COc1ccc2c(c1)c(C=O)cn2CCCCCCCN(C)Cc1cccc(O)c1
a: 4890

q: Provide one value: measured IC50 of COc1ccc2c(c1)c(C=O)cn2CCCCCCCCCCN(C)Cc1ccc(O)cc1
a: 190

q: Provide one value: measured IC50 of COc1ccc2c(c1)c(C=O)cn2CCCCCCCCCCCCN(C)Cc1cccc(O)c1
a: 150

q: Provide one value: measured IC50 of CN(CCCCCCCCCCCCn1cc(C=O)c2cc(O)ccc21)Cc1cccc(O)c1
a: 1200

Provenance of the data: ChEMBL document CHEMBL5236653
